tested on: 3D7; assay: qHTS profiling for inhibitors of Plasmodium falciparum proliferation (AID 504749); further: nearly all actives have a fitted effect of over 60% in size; conditions: P. falciparum in erythrocytes, SYBR Green DNA, 72 h; series mostly up to 28.7 µM
Inconclusive results are not listed. The source made the active and inactive calls. The call rests on the fitted dose curve; in most records, active means well fitted inhibition curve with a large enough effect; inconclusive means small, poorly fitted or top-dose-only effect; inactive means flat fitted curve, though single readings scatter. Bridge positions count the residues as written; N and C are the ends. Square brackets hold non-standard residues; d marks the D form. Peptide text beside a SMILES is read from it. * marks the point of attachment. ξ: configuration not given here. ξDab(CH2SO3H) = NC(CCNCS(=O)(=O)O)C(=O)O; Heptanoyl(6-Me) = CC(C)CCCCC(=O)*; Dab = NCC[CH](N)C(=O)O
The reply should name one outcome from 1 for active, 0 for inactive

Examples with answers:
NC(=O)CCC1NC(=O)C(Cc2ccccc2)NC(=O)C(Cc2ccc(O)cc2)NC(=O)CCSSCC(C(=O)N2CCCC2C(=O)NC(CCCN=C(N)N)C(=O)NCC(N)=O)NC(=O)C(CC(N)=O)NC1=O (stereo not given): 0
CNCC(=O)NC(CCCN=C(N)N)C(=O)NC(C(=O)NC(Cc1ccc(O)cc1)C(=O)NC(C(=O)NC(Cc1cnc[nH]1)C(=O)N1CCCC1C(=O)NC(C)C(=O)O)C(C)C)C(C)C (stereo not given): 0
C=CC1=C(C(=O)O)N2C(=O)[C@@H](NC(=O)C(N=O)c3csc(N)n3)[C@H]2SC1 (stereo not given in full): 0
CCOC(=O)C(CS)NCCN[C@@H](CS)C(=O)OCC (stereo not given in full): 0
Cn1cc(O)nc1NC(=O)Nc1cccc(Cl)c1: 0
CC(C)C(NC(=O)C(CC(=O)O)NC(=O)C(CCCCN)NC(=O)C(N)CCCN=C(N)N)C(=O)NC(Cc1ccc(O)cc1)C(=O)O (stereo not given) (H-RKDVY-OH; configuration not given here): 0
CC(=O)OCC(=O)[C@@]1(O)CCC2C3CCC4=CC(=O)CC[C@]4(C)C3=CC[C@@]21C (stereo not given in full): 0
O=C(OCC1OC(OC(=O)c2cc(O)c(O)c(OC(=O)c3cc(O)c(O)c(O)c3)c2)[C@@H](OC(=O)c2cc(O)c(O)c(OC(=O)c3cc(O)c(O)c(O)c3)c2)C(OC(=O)c2cc(O)c(O)c(OC(=O)c3cc(O)c(O)c(O)c3)c2)C1OC(=O)c1cc(O)c(O)c(OC(=O)c2cc(O)c(O)c(O)c2)c1)c1cc(O)c(O)c(OC(=O)c2cc(O)c(O)c(O)c2)c1 (stereo not given in full): 1
CCC(C)C1NC(=O)C(CCNCS(=O)(=O)O)NC(=O)C(NC(=O)C(CCNCS(=O)(=O)O)NC(=O)C(NC(=O)C(CCNCS(=O)(=O)O)NC(=O)CCCCC(C)C)C(C)O)CCNC(=O)C(C(C)O)NC(=O)C(CCNCS(=O)(=O)O)NC(=O)C(CCNCS(=O)(=O)O)NC(=O)C(C(C)CC)NC1=O (stereo not given) ({Heptanoyl(6-Me)}-[ξDab(CH2SO3H)]T[ξDab(CH2SO3H)][Dab][ξDab(CH2SO3H)]II[ξDab(CH2SO3H)][ξDab(CH2SO3H)]T; lactam 4-C; configuration not given here): 0

Let's switch to this molecule now.
[Q] Dear all, I need the recorded test outcome for CC(C)C[C@H](NC(=O)[C@@H](Cc1c[nH]c2ccccc12)NC(=O)[C@@H](Cc1ccc(O)cc1)NC(=O)[C@@H](CO)NC(=O)[C@@H](Cc1c[nH]c2ccccc12)NC(=O)C(Cc1cnc[nH]1)NC(=O)C1CCC(=O)N1)C(=O)N[C@@H](CCCN=C(N)N)C(=O)N1CCC[C@@H]1C(=O)NCC(N)=O (stereo not given in full) , thank you.
[A] 0

* * *

test: qHTS assay for cell viability of HEK293 cells (AID 743288); settings: ATP luminescence (CellTiter-Glo), 18 h; active compounds read low; further: on the % scale 0 is the no-effect control and ±100 the full control effect; nearly all actives have a fitted effect of over 50% in size
Records with an inconclusive call do not appear.
Kindly state max response for each of the entries shown.
Numbers only, in %.

Worked cases, max response given:
C=C[Si](C)(C)O[Si](C)(C)C=C: -5.1
CCCCCCCCCCCCCc1ccccc1: 4.66
CCC(O)OCCCOC (stereo not given): -3.1

Okay, here is my list. What is max response for each of these?
1. CCC(C)OC(=O)N1CCCCC1CCO (stereo not given)
2. CCCOC(=O)NCCCN(C)C
3. CC(C)=CCC/C(C)=C\CO

[A]
[-6.27, -0.93, -0.935]

* * *

test system: CP252; assay: qHTS profiling for inhibitors of Plasmodium falciparum proliferation (AID 504749); further: nearly all actives have a fitted effect of over 60% in size; details: P. falciparum in erythrocytes, SYBR Green DNA, 72 h; series mostly up to 28.7 µM
Records with an inconclusive call do not appear. Calls of active or inactive are those of the source. Calls follow the shape of the dose curve; as a rule, active = well fitted inhibition curve with a large enough effect; inconclusive = small, poorly fitted or top-dose-only effect; inactive = flat fitted curve, though single readings scatter.
REPORTED_PROPERTY: outcome

CC1(C)C(/C=C/C=C/C=C/C=C2\N(CCCCS(=O)(=O)O)c3ccc4ccccc4c3C2(C)C)=[N+](CCCCS(=O)(=O)[O-])c2ccc3ccccc3c21: inactive
CNCC(=O)NC(CCCN=C(N)N)C(=O)NC(C(=O)NC(Cc1ccc(O)cc1)C(=O)NC(C(=O)NC(Cc1cnc[nH]1)C(=O)N1CCCC1C(=O)NC(C)C(=O)O)C(C)C)C(C)C (stereo not drawn): inactive
CCC(C)C1NC(=O)C(Cc2ccc(O)cc2)NC(=O)C(N)CSSCC(C(=O)N2CCCC2C(=O)NC(CC(C)C)C(=O)NCC(N)=O)NC(=O)C(CC(N)=O)NC(=O)C(CCC(N)=O)NC1=O (stereo not drawn): inactive

* * *

test system: CP192; assay: qHTS profiling for inhibitors of Plasmodium falciparum proliferation (AID 504749); further: nearly all actives have a fitted effect of over 60% in size; conditions: P. falciparum in erythrocytes, SYBR Green DNA, 72 h; series mostly up to 28.7 µM
Results filed as inconclusive are left out. Calls of active or inactive are those of the source. Calls follow the shape of the dose curve; as a rule, active = well fitted inhibition curve with a large enough effect; inconclusive = small, poorly fitted or top-dose-only effect; inactive = flat fitted curve, though single readings scatter. Numbered stars: 1 amine (or outer) side, 2 acyl side, 3 side chain; on linkers, the order of the positions; unused ones are H or OH. Bridge positions count the residues as written; N and C are the ends. Square brackets hold non-standard residues; d marks the D form. Peptide text beside a SMILES is read from it. * marks the point of attachment. ξ: configuration not given here. ΔAla(Z-3-ureido) = NC(=O)N/C=C(\N)C(=O)O; ξDab(CH2SO3H) = NC(CCNCS(=O)(=O)O)C(=O)O; X1 = NC1=NCCC(C(N[*:1])C(=O)[*:2])N1; Heptanoyl(6-Me) = CC(C)CCCCC(=O)*; ξβ3hOrn = NCCCC(N)CC(=O)*; Dab = NCC[CH](N)C(=O)O; Dap = NC[CH](N)C(=O)O
Select the matching outcome among active, inactive

Consider the worked cases shown below.
CC(C)CC(NC(=O)C(COC(C)(C)C)NC(=O)C(Cc1ccc(O)cc1)NC(=O)C(CO)NC(=O)C(Cc1c[nH]c2ccccc12)NC(=O)C(Cc1cnc[nH]1)NC(=O)C1CCC(=O)N1)C(=O)NC(CCCN=C(N)N)C(=O)N1CCCC1C(=O)NNC(N)=O (centres undefined): inactive
CC1(C)C(/C=C/C=C/C=C/C=C2\N(CCCCS(=O)(=O)O)c3ccc4ccccc4c3C2(C)C)=[N+](CCCCS(=O)(=O)[O-])c2ccc3ccccc3c21: inactive
COc1ccc(-c2nc3ccc(C4=C(C)CC(=O)NN4)cc3[nH]2)cc1: inactive

[Q] For CC(C)C(NC(=O)C(CC(=O)O)NC(=O)C(CCCCN)NC(=O)C(N)CCCN=C(N)N)C(=O)NC(Cc1ccc(O)cc1)C(=O)O (centres undefined) (H-RKDVY-OH; configuration not given here) , what call appears in the results of this test?
[A] inactive

[Q] Write down the call the test reported for this molecule. Item: CCC(C)C1NC(=O)C(Cc2ccc(O)cc2)NC(=O)C(N)CSSCC(C(=O)N2CCCC2C(=O)NC(CC(C)C)C(=O)NCC(N)=O)NC(=O)C(CC(N)=O)NC(=O)C(CCC(N)=O)NC1=O (centres undefined)
[A] inactive

[Q] // return assay outcome for CCC(C)C1NC(=O)C(CCNCS(=O)(=O)O)NC(=O)C(NC(=O)C(CCNCS(=O)(=O)O)NC(=O)C(NC(=O)C(CCNCS(=O)(=O)O)NC(=O)CCCCC(C)C)C(C)O)CCNC(=O)C(C(C)O)NC(=O)C(CCNCS(=O)(=O)O)NC(=O)C(CCNCS(=O)(=O)O)NC(=O)C(C(C)CC)NC1=O (centres undefined) ({Heptanoyl(6-Me)}-[ξDab(CH2SO3H)]T[ξDab(CH2SO3H)][Dab][ξDab(CH2SO3H)]II[ξDab(CH2SO3H)][ξDab(CH2SO3H)]T; lactam 4-C; configuration not given here)
[A] inactive

[Q] Could you please tell me the result logged for CC(=O)OCC(=O)[C@@]1(O)CCC2C3CCC4=CC(=O)CC[C@]4(C)C3=CC[C@@]21C (some centres undefined) in this assay?
[A] inactive

[Q] I'd appreciate the recorded outcome for O=C(OCC1OC(OC(=O)c2cc(O)c(O)c(OC(=O)c3cc(O)c(O)c(O)c3)c2)[C@@H](OC(=O)c2cc(O)c(O)c(OC(=O)c3cc(O)c(O)c(O)c3)c2)C(OC(=O)c2cc(O)c(O)c(OC(=O)c3cc(O)c(O)c(O)c3)c2)C1OC(=O)c1cc(O)c(O)c(OC(=O)c2cc(O)c(O)c(O)c2)c1)c1cc(O)c(O)c(OC(=O)c2cc(O)c(O)c(O)c2)c1 (some centres undefined) from this test.
[A] active

[Q] Could you check what this test reported for NCCCC(N)CC(=O)NCC1NC(=O)C(CO)NC(=O)C(N)CNC(=O)C(C2CCN=C(N)N2)NC(=O)/C(=C/NC(N)=O)NC1=O (stereo not drawn) (H-[Dap]S[Dap](ξβ3hOrn)[ΔAla(Z-3-ureido)][X1]; lactam 1-C; configuration not given here) ?
[A] inactive
